Known IC50 of a selection of compounds
target.entity: AKAP-PKA interaction (Homo sapiens)
Sequence (P13861 2-404 limits assumed): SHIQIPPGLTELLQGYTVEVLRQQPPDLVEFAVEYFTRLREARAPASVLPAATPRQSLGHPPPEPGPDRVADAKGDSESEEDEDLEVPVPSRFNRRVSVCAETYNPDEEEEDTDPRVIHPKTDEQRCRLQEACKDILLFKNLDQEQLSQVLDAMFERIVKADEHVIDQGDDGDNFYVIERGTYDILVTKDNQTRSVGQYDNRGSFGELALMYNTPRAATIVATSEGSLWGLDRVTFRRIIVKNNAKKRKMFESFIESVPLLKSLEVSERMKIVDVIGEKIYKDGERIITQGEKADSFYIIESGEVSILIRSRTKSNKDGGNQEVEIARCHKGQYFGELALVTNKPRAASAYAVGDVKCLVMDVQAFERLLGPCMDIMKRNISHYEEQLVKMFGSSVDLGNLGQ
assay.summary: AKAP-PKA interaction (disruption) assays of Examples 1-3: alpha screen, surface plasmon resonance, ELISA (combined classification)
Type: binding
study.conditions: class from IC50 values in assays of Examples 1, 2 or 3; read-out: Activity (IC50 class)

Please review the entries below; each comes with its answer.
{"compound": "O=C1/C(=C/Nc2nncs2)Sc2ccccc21 [T2/31]", "target.entity": "AKAP-PKA interaction (Homo sapiens)", "IC50": "< 150 µM"}
{"compound": "O=C1/C(=C/Nc2ncccn2)Sc2ccccc21 [T2/49]", "target.entity": "AKAP-PKA interaction (Homo sapiens)", "IC50": "< 250 µM"}
{"compound": "Cc1cnc(N/C=C2\\Sc3ccccc3C2=O)s1 [T2/11]", "target.entity": "AKAP-PKA interaction (Homo sapiens)", "IC50": "< 150 µM"}
{"compound": "O=C1/C(=C/Nc2ncc(Cl)s2)Sc2ccccc21 [T2/14]", "target.entity": "AKAP-PKA interaction (Homo sapiens)", "IC50": "< 150 µM"}
{"compound": "Cc1csc(N/N=C2\\Sc3ccccc3C2=O)n1 [T2/51]", "target.entity": "AKAP-PKA interaction (Homo sapiens)", "IC50": "< 25 µM"}

**Q:** Requested field: IC50. Item: O=C(O)c1cnc(N/N=C2\Sc3ccccc3C2=O)s1 [T2/53]
**A:** < 25 µM

**Q:** Input COc1ccc2nc(N/C=C3\Sc4ccccc4C3=O)sc2c1 [T2/24]
**A:** < 150 µM

**Q:** Input O=C1/C(=C/Nc2nc3ccccc3s2)Cc2ccccc21 [T2/55]
**A:** < 250 µM

**Q:** Input O=C1/C(=C/Nc2nc3ccc(Br)cc3s2)Sc2ccccc21 [T2/28]
**A:** < 150 µM

**Q:** Input O=C1/C(=C/Nc2nccs2)Sc2ccccc21 [T2/6]
**A:** < 150 µM

**Q:** Input O=C1/C(=C/Nc2nnc(Br)s2)Sc2ccccc21 [T2/32]
**A:** < 150 µM

**Q:** Input O=C1/C(=C/Nc2ccccc2[N+](=O)[O-])Sc2ccccc21 [T2/33]
**A:** < 150 µM

**Q:** Input O=C1/C(=C/Nc2nc3c(F)cc(F)cc3s2)Sc2ccccc21 [T2/26]
**A:** 250 to 750 µM

**Q:** Input O=C1/C(=C/Nc2cccc(Br)c2)Sc2ccccc21 [T2/37]
**A:** 250 to 750 µM

**Q:** Input O=C1/C(=C/Nc2ncc[nH]2)Sc2ccccc21 [T2/1]
**A:** < 150 µM

**Q:** Input NC(=O)c1cnc(N/C=C2\Sc3ccccc3C2=O)s1 [T2/19]
**A:** < 150 µM

**Q:** Input O=C1/C(=C\Nc2cccc3ccccc23)Sc2ccccc21 [T2/39]
**A:** 250 to 750 µM

**Q:** Input O=C1/C(=C/Nc2nc3ccccc3[nH]2)Sc2ccccc21 [T2/2]
**A:** < 150 µM

**Q:** Input Cn1c(N/C=C2\Sc3ccccc3C2=O)nc2ccccc21 [T2/3]
**A:** < 150 µM

**Q:** Input O=C1/C(=C/Nc2nc3ccc([N+](=O)[O-])cc3s2)Sc2ccccc21 [T2/25]
**A:** < 250 µM

**Q:** Input O=C(O)c1cnc(N/C=C2\Sc3ccccc3C2=O)s1 [T2/16]
**A:** < 250 µM
